ASSAYED_SYSTEM: human IL-23R (Homo sapiens)
Construct: Nanoluc luciferase (Nluc); secretion signal encoded by the plasmid (not specified); crude membranes used in the assay
TEST_SUMMARY: Binding assay: displacement of fluorophore (TAMRA)-labelled reference compound from human IL-23R (BRET, Nluc-IL23R fusion protein membranes)
*1 amine or outer side, *2 acyl side, *3 side chain or, on linkers, in order; H or OH if unused. Where a SMILES comes first, the peptide text is derived from it. Bridges are numbered along the chain shown (N, C = ends). [ ]: non-standard residue; d: D form. 2Nal = N[C@@H](Cc1ccc2ccccc2c1)C(=O)O; AEF = NCCOc1ccc(C[C@H](N)C(=O)O)cc1; X1 = O=C(Cc1ccc(CN[*:1])cc1)[*:2]; 3Pal = N[C@@H](Cc1cccnc1)C(=O)O; αMeL = CC(C)C[C@](C)(N)C(=O)O; Orn = NCCC[C@H](N)C(=O)O; Dab = NCC[C@H](N)C(=O)O
Listed next: entries and their corresponding IC50.
Your answer should be a plain number; it is taken to be in nM.

A selection of reference data follows.
COMPOUND	IC50 / nM
CNC(=O)[C@H](Cc1cccnc1)NC(=O)[C@H](CCN)NC(=O)[C@@H]1CCC(=O)NCc2ccc(cc2)CC(=O)N[C@@H](CO)C(=O)N[C@H]2CCC(=O)NCC[C@H](NC(=O)[C@H](CCCN)NC(=O)[C@H](Cc3c[nH]c4ccccc34)NC2=O)C(=O)N[C@@H](Cc2ccc(OCCN)cc2)C(=O)N[C@@H](Cc2ccc3ccccc3c2)C(=O)N[C@@](C)(CC(C)C)C(=O)N1 [Compound 28] ([X1]SEW[Orn][Dab][AEF][2Nal][αMeL]E[Dab][3Pal]-NHMe; lactam 3-6, N-10)	0.011
CNC(=O)[C@H](Cc1cccnc1)NC(=O)[C@H](CCN)NC(=O)[C@@H]1CCC(=O)NCc2ccc(cc2)CC(=O)N[C@@H](CO)C(=O)N[C@H]2CCC(=O)NCC[C@H](NC(=O)[C@H](CCNC(C)=O)NC(=O)[C@H](Cc3c[nH]c4ccccc34)NC2=O)C(=O)N[C@@H](Cc2ccc(OCCN)cc2)C(=O)N[C@@H](Cc2ccc3ccccc3c2)C(=O)N[C@@](C)(CC(C)C)C(=O)N1 [Compound 25] ([X1]SEW[Dab](Ac)[Dab][AEF][2Nal][αMeL]E[Dab][3Pal]-NHMe; lactam 3-6, N-10)	0.011

Consider the compound CC(C)C[C@]1(C)NC(=O)[C@H](Cc2ccc3ccccc3c2)NC(=O)[C@H](Cc2ccc(OCCN)cc2)NC(=O)[C@@H]2CCNC(=O)CC[C@H](NC(=O)[C@H](CO)NC(=O)Cc3ccc(cc3)CNC(=O)CC[C@@H](C(=O)N[C@@H](CCN)C(=O)N[C@@H](Cc3cn(C)cn3)C(N)=O)NC1=O)C(=O)N[C@@H](Cc1c[nH]c3ccccc13)C(=O)N[C@@H](CCC(N)=O)C(=O)N2 . State its measured IC50.
0.11

====

ASSAYED_SYSTEM: human IL-23R (Homo sapiens, UniProt Q5VWK5)
Construct: Nanoluc luciferase (Nluc); secretion signal encoded by the plasmid (not specified); expressed in transfected cells; crude membranes used in the assay
Sequence (Q5VWK5 22-629): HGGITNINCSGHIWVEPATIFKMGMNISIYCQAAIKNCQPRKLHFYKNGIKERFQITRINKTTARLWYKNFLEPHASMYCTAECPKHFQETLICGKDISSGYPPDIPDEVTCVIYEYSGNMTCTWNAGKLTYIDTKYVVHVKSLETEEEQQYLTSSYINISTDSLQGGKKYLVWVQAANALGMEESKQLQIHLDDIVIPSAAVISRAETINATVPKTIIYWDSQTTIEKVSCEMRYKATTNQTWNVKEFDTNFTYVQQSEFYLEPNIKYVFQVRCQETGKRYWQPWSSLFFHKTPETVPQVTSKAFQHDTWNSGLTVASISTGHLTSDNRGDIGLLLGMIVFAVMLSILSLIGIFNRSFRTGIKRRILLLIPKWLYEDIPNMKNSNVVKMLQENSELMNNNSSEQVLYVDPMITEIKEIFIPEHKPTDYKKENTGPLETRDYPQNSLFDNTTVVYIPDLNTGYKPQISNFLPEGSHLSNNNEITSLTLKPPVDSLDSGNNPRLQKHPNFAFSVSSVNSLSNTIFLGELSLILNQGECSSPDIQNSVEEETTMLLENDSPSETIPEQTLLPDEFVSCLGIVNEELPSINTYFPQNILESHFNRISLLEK
TEST_SUMMARY: Binding assay: displacement of fluorophore (TAMRA)-labelled reference compound from human IL-23R (BRET, Nluc-IL23R fusion protein membranes)
CONDITIONS: read-out: % displacement (hIL-23R binding)
*1 amine or outer side, *2 acyl side, *3 side chain or, on linkers, in order; H or OH if unused. Where a SMILES comes first, the peptide text is derived from it. Bridges are numbered along the chain shown (N, C = ends). [ ]: non-standard residue; d: D form. 2Nal = N[C@@H](Cc1ccc2ccccc2c1)C(=O)O; AEF = NCCOc1ccc(C[C@H](N)C(=O)O)cc1; X1 = O=C(Cc1ccc(CN[*:1])cc1)[*:2]; 3Pal = N[C@@H](Cc1cccnc1)C(=O)O; αMeL = CC(C)C[C@](C)(N)C(=O)O; CH2COCH2 = O=C(C[*:1])C[*:2]; β3hL = CC(C)C[C@H](N)CC(=O)O; Orn = NCCC[C@H](N)C(=O)O; Dab = NCC[C@H](N)C(=O)O; βAla = NCCC(=O)O
READOUT_LABEL: Emax (%)
Just the number please, in %, no unit attached.

Solved cases below.
MOLECULE	ASSAYED_SYSTEM	MEASURE_UNIT	Emax
CC(C)C[C@]1(C)NC(=O)[C@H](Cc2ccc3ccccc3c2)NC(=O)[C@H](Cc2ccc(OCCN)cc2)NC(=O)[C@@H]2CSCC(=O)CSC[C@H](NC(=O)[C@H](CO)NC(=O)Cc3ccc(cc3)CNC(=O)CC[C@@H](C(=O)N[C@@H](CO)C(N)=O)NC1=O)C(=O)N[C@@H](Cc1c[nH]c3ccccc13)C(=O)N[C@@H](CCC(N)=O)C(=O)N2 [Ref 81, reference compound]	human IL-23R (Homo sapiens, UniProt Q5VWK5)	%	101
CNC(=O)[C@H](Cc1cccnc1)NC(=O)[C@H](CCN)NC(=O)[C@@H]1CCC(=O)NCc2ccc(cc2)CC(=O)N[C@@H](CO)C(=O)N[C@H]2CCC(=O)NCC[C@H](NC(=O)[C@H](CCCN)NC(=O)[C@H](Cc3c[nH]c4ccccc34)NC2=O)C(=O)N[C@@H](Cc2ccc(OCCN)cc2)C(=O)N[C@@H](Cc2ccc3ccccc3c2)C(=O)N[C@@](C)(CC(C)C)C(=O)N1 [Compound 28] ([X1]SEW[Orn][Dab][AEF][2Nal][αMeL]E[Dab][3Pal]-NHMe; lactam 3-6, N-10)	human IL-23R (Homo sapiens, UniProt Q5VWK5)	%	97
CNC(=O)[C@H](Cc1cccnc1)NC(=O)[C@H](CO)NC(=O)[C@@H]1CCC(=O)NCc2ccc(cc2)CC(=O)N[C@@H](C)C(=O)N[C@H]2CCC(=O)NCC[C@H](NC(=O)[C@H](CCC(N)=O)NC(=O)[C@H](Cc3c[nH]c4ccccc34)NC2=O)C(=O)N[C@@H](Cc2ccc(OCCN)cc2)C(=O)N[C@@H](Cc2ccc3ccccc3c2)C(=O)N[C@@](C)(CC(C)C)C(=O)N1 [Compound 40] ([X1]AEWQ[Dab][AEF][2Nal][αMeL]ES[3Pal]-NHMe; lactam 3-6, N-10)	human IL-23R (Homo sapiens, UniProt Q5VWK5)	%	100
CC(C)C[C@]1(C)NC(=O)[C@H](Cc2ccc3ccccc3c2)NC(=O)[C@H](Cc2ccc(OCCN)cc2)NC(=O)[C@@H]2CCNC(=O)CC[C@H](NC(=O)[C@H](CO)NC(=O)Cc3ccc(cc3)CNC(=O)CC[C@@H](C(=O)N[C@@H](CCN)C(=O)N[C@@H](Cc3cccnc3)C(N)=O)NC1=O)C(=O)N[C@@H](Cc1c[nH]c3ccccc13)C(=O)N[C@@H](CCC(N)=O)C(=O)N2 [Ref 122, reference compound]	human IL-23R (Homo sapiens, UniProt Q5VWK5)	%	97
CC(C)C[C@]1(C)NC(=O)[C@H](Cc2ccc3ccccc3c2)NC(=O)[C@H](Cc2ccc(OCCN)cc2)NC(=O)[C@@H]2CSCC(=O)CSC[C@H](NC(=O)[C@H](CO)NC(=O)CCNC(=O)[C@H](Cc3cccnc3)NC(=O)CC[C@@H](C(=O)N[C@H](CCCNC(=N)N)C(N)=O)NC1=O)C(=O)N[C@@H](Cc1c[nH]c3ccccc13)C(=O)N[C@@H](CCC(N)=O)C(=O)N2 [Compound 2] ([3Pal][βAla]SCWQC[AEF][2Nal][αMeL]E[dR]-NH2; linker 4-7 via CH2COCH2; lactam N-11)	human IL-23R (Homo sapiens, UniProt Q5VWK5)	%	103

State, for human IL-23R (Homo sapiens, UniProt Q5VWK5), measured Emax of the molecule listed here: CC(C)C[C@]1(C)NC(=O)[C@H](Cc2ccc3ccccc3c2)NC(=O)[C@H](Cc2ccc(OCCN)cc2)NC(=O)[C@@H]2CCNC(=O)CC[C@H](NC(=O)[C@H](CO)NC(=O)Cc3ccc(cc3)CNC(=O)CC[C@@H](C(=O)N[C@@H](CCN)C(=O)N[C@@](C)(Cc3cccnc3)C(N)=O)NC1=O)C(=O)N[C@@H](Cc1c[nH]c3ccccc13)C(=O)N[C@@H](CCC(N)=O)C(=O)N2 [Compound 3]
99

Given CNC(=O)[C@H](Cc1cccnc1)NC(=O)[C@H](CCN)NC(=O)[C@@H]1CCC(=O)NCc2ccc(cc2)CC(=O)N[C@@H](CO)C(=O)N[C@H]2CCC(=O)NCC[C@H](NC(=O)[C@H](CCCCNC(C)=O)NC(=O)[C@H](Cc3c[nH]c4ccccc34)NC2=O)C(=O)N[C@@H](Cc2ccc(OCCN)cc2)C(=O)N[C@@H](Cc2ccc3ccccc3c2)C(=O)N[C@@](C)(CC(C)C)C(=O)N1 [Compound 24] ([X1]SEWK(Ac)[Dab][AEF][2Nal][αMeL]E[Dab][3Pal]-NHMe; lactam 3-6, N-10) , report its Emax on human IL-23R (Homo sapiens, UniProt Q5VWK5).
97

Please look at CC(C)C[C@]1(C)NC(=O)[C@H](Cc2ccc3ccccc3c2)NC(=O)[C@H](Cc2ccc(OCCN)cc2)NC(=O)[C@@H]2CSCC(=O)CSC[C@H](NC(=O)[C@H](CO)NC(=O)[C@H](Cc3cccnc3)NC(=O)CCNC(=O)CC[C@@H](C(=O)N[C@H](CCCNC(=N)N)C(N)=O)NC1=O)C(=O)N[C@@H](Cc1c[nH]c3ccccc13)C(=O)N[C@@H](CCC(N)=O)C(=O)N2 [Compound 1] ([βAla][3Pal]SCWQC[AEF][2Nal][αMeL]E[dR]-NH2; linker 4-7 via CH2COCH2; lactam N-11) and tell me its recorded Emax on human IL-23R (Homo sapiens, UniProt Q5VWK5).
105

Name the recorded Emax of CC(C)C[C@@H](CC(N)=O)NC(=O)[C@H](Cc1cccnc1)NC(=O)[C@H](CCN)NC(=O)[C@@H]1CCC(=O)NCc2ccc(cc2)CC(=O)N[C@@H](CO)C(=O)N[C@H]2CCC(=O)NCC[C@H](NC(=O)[C@H](CCC(N)=O)NC(=O)[C@H](Cc3c[nH]c4ccccc34)NC2=O)C(=O)N[C@@H](Cc2ccc(OCCN)cc2)C(=O)N[C@@H](Cc2ccc3ccccc3c2)C(=O)N[C@@](C)(CC(C)C)C(=O)N1 [Compound 11] ([X1]SEWQ[Dab][AEF][2Nal][αMeL]E[Dab][3Pal][β3hL]-NH2; lactam 3-6, N-10) , assay system human IL-23R (Homo sapiens, UniProt Q5VWK5).
103
